- Tested on: HCC 2998
- Experiment Summary: NCI tumour cell line growth inhibition, 48 h
Active and inactive are the calls of the source. Rule as the data show it: active = GI50 up to about 1.1 µM and inactive = higher. Where a SMILES comes first, the peptide text is derived from it. [ ]: non-standard residue; d: D form. The star is where a group is joined. Bn2Val = CC(C)[C@@H](C(=O)*)N(Cc1ccccc1)Cc1ccccc1; NHPiperonyl = c1cc2c(cc1CN*)OCO2; NMeV = CN[C@H](C(=O)O)C(C)C; dNMeA = CN[C@H](C)C(=O)O
Reported GI50 values follow for various compounds

Use the examples below as a reference point.
COc1cccc(/C=C\c2ccc(O)cc2)c1; 23.8 µM (inactive)
CC(C)[C@H](NC(=O)[C@H](C(C)C)N(Cc1ccccc1)Cc1ccccc1)C(=O)N(C)[C@H](C(=O)N1CCC[C@H]1C(=O)N(C)[C@H](C)C(=O)NCc1ccc2c(c1)OCO2)C(C)C (Bn2Val-V[NMeV]P[dNMeA]-NHPiperonyl); 3.23 µM (inactive)
CC(=O)N(CN1C(=O)CCC1C(=O)O)c1ccc(C)cc1 (centres undefined); > 100 µM (inactive)

Next, consider the following compound.
## Input Recorded GI50 for `CCOC(=O)CON=c1c2ccccc2ccc2ccccc12` , please?
## Output 26.1 µM (inactive)

* * *

- System: BT-549
- Experiment Summary: NCI tumour cell line growth inhibition, 48 h
Calls of active or inactive are those of the source. Cut-off read from the data, not from the text of the source: active = GI50 up to about 1.1 µM and inactive = higher.
Give one outcome, nothing more. List: YES (active), NO (inactive)

O=C(/C=C/C=C/c1ccccc1)c1ccccc1; NO
COc1cccc2c1C(=N)c1c(O)c3c(c(O)c1C2=O)C[C@@](O)(C(C)=O)C[C@@H]3OC1CC(N)C(O)C(C)O1 (stereo not given in full); YES
CCCN1C(=O)CN(S(=O)(=O)c2ccc(Cl)cc2)C1=O; NO
CN(C)C(=O)C(NCCO)c1ccccc1 (stereo not given); NO
CO/N=C1/c2sccc2[C@H](NC(=O)C(Cc2ccccc2)NC(=O)OC(C)(C)C)[C@@H]1O (stereo not given in full); NO
O=C(Nc1nnc(-c2c(Cl)c(Cl)c(Cl)c(Cl)c2-c2nc3cc(C(=O)c4ccccc4)ccc3[nH]2)o1)c1ccc(Cl)cc1; NO
COc1c(C(C)(C)C)cc(CC2C(=O)C=CC2=O)cc1C(C)(C)C; NO
CC(C)(CO)NC(=O)c1cccc(C(=O)NC(C)(C)CO)c1Br; NO
c1ccc(CSCCc2ccncc2)cc1; NO

Now take the following compound into account.
## Input Call for entry `Cn1c(N/N=C/c2ccc(Cl)cc2)nc(-c2ccc(Cl)cc2)c(C#N)c1=O` :
## Output NO

* * *

- System: M14
- Experiment Summary: NCI tumour cell line growth inhibition, 48 h
The source made the active and inactive calls. No stated cut-off is given here; in the data, active = GI50 up to about 1.1 µM and inactive = higher.
Give one outcome, nothing more. List: y (active), n (inactive)

Some solved cases for reference:
CC(C)(C)OC(=O)N1C(c2cccnc2)=CC[C@H]2C3CC=C(c4cccnc4)[C@@]3(C)CC[C@@H]21 (some centres not stated); n
O=C(O)CN1CCN(CC(=O)O)CCN(CC(=O)O)CCN(CC(=O)O)CC1 [TETRAXETAN]; n
COC(=O)C(=O)C(C(=O)C(=O)Nc1nnc(S)[nH]1)c1nc2ccc([N+](=O)[O-])cc2nc1O (configuration not stated); n

Now take the following molecule into account.
## Input Call for entry `COc1ccc(CNc2nc3cc(C(F)(F)F)ccc3nc2C(=O)O)cc1OC` :
## Output n

* * *

- System: HOP-62
- Experiment Summary: NCI tumour cell line growth inhibition, 48 h
The source made the active and inactive calls. Rule as the data show it: active = GI50 up to about 1.1 µM and inactive = higher.
Reported GI50 values follow for various compounds

Use the examples below as a reference point.
Cc1nn(-c2ccccc2)c2c1C(c1ccc(Cl)cc1)NC(=S)N2 (stereo unspecified); 16.1 µM (inactive)
NCCCCCS(=O)(=O)O; > 100 µM (inactive)
Cc1nc2c(nc1C)C(=O)c1cc(O)ccc1C2=O; 69.5 µM (inactive)
N#C/C(=C/n1c(=S)[nH]c2ccccc21)C(N)=O; > 100 µM (inactive)
COc1ccccc1NC(=O)C1=C(C)NC(C)=C(C(=O)Nc2ccccc2OC)C1c1ccc(C)cc1; > 100 µM (inactive)
C(/c1ccco1)=c1/nc(-c2ccccc2)n2c1nc1ccccc12; 2.05 µM (inactive)
S=C1CC(c2ccc(Cl)cc2)Sc2ccccc2N1 (stereo unspecified); 16.4 µM (inactive)
N=C(N)NS(=O)(=O)c1ccc(NC(=O)c2cccc3c(NNc4ccc(C(=O)O)cc4)c4ccccc4nc23)cc1; > 100 µM (inactive)
C=CCn1c(=O)c2ccccc2[n+]2c(C)c(C(=O)OCC)sc12; 42.4 µM (inactive)
CC(=O)O/N=C(/C)c1ccccc1O; > 100 µM (inactive)

## Input Recorded GI50 for `CSc1c(C(=O)Nc2ccc(Cl)cc2)c(N)nn1-c1ccccc1` , please?
## Output 80 µM (inactive)

* * *

- Tested on: HL-60
- Experiment Summary: NCI tumour cell line growth inhibition, 48 h
The source made the active and inactive calls. No stated cut-off is given here; in the data, active = GI50 up to about 1.1 µM and inactive = higher.
Give one outcome, nothing more. List: Yes (active), No (inactive)

Some solved cases for reference:
COc1ccc(C[C@H](N)C(=O)NC2C(CO)OC(n3cnc4c(N(C)C)ncnc43)C2O)cc1 (stereo not given in full); Yes
CCCc1nc2c(n1CC)C(=O)c1ccccc1C2=O; No
O=C(Cn1ccc(=O)[nH]c1=O)Nc1ccc(C(=O)O)c(O)c1; No
CCOP(=O)(OCC)/C(C#N)=C/c1c(C)[nH]c2ccccc12; No

## Input Call for entry O=C1CSC(/C=C/c2ccccc2)N1c1ccc(-c2ccc(-n3c(-c4ccccc4)nc4ccccc4c3=O)cc2)cc1 (stereo not given) :
## Output No

## Input Call for entry COc1cccc2c1OC1(C=C2)Oc2ccccc2C(=O)N1C (stereo not given) :
## Output No

## Input Call for entry `CC(=O)OCc1cc(OC(C)=O)cnc1COC(C)=O` :
## Output No

## Input Call for entry `COc1ccc(-c2nc(SCC(=O)NNC(=S)Nc3ccccc3)[nH]c2-c2ccc(OC)cc2)cc1` :
## Output No

## Input Call for entry `Cc1cccc(-c2nnc3s/c(=C\c4ccc(N(C)C)cc4)c(=O)n23)c1` :
## Output No

## Input Call for entry C[Si](C)(C)/C=C/CCC(C=O)(CCCl)c1ccccc1 (stereo not given) :
## Output No

* * *

- Test system: SW-620
- Experiment Summary: NCI tumour cell line growth inhibition, 48 h
Calls of active or inactive are those of the source. Rule as the data show it: active = GI50 up to about 1.1 µM and inactive = higher.
Give one outcome, nothing more. List: active, inactive

Some solved cases for reference:
C=CCOC(C)(C)C1=CCC(C)CC1 (configuration not stated); inactive
CCC1(CCSC(=N)N)C(=O)NC(=O)NC1=O; inactive
Cc1cc2c(cc1Cl)SC(NNC1=NCCN1)=NS2(=O)=O; inactive
CCC1=NC(N/N=C/c2ccco2)=N/C1=C\c1ccco1; inactive
COc1cc(O)c(Cc2ccccc2O)c(O)c1C(=O)CCc1ccccc1; inactive
Nc1cc(=O)n(-c2ccccc2)c(=S)n1-c1ccccc1; inactive
CC(=O)OCc1cc(OC(C)=O)cnc1COC(C)=O; inactive
CCCCCCCCCCCC[N+]12CC[N+](CCN)(CC1)CC2; inactive

## Input Call for entry `O=C1c2sccc2C(=O)c2c(CO)csc21` :
## Output inactive

## Input Call for entry CC[N+]1(C)CCC(O)(c2ccc(C)cc2)C(C(=O)c2ccc(C)cc2)C1 (configuration not stated) :
## Output inactive

## Input Call for entry `OCCOCn1cc(Cn2ncc3c(SCc4ccccc4)ncnc32)nn1` :
## Output inactive

## Input Call for entry `CSC(=S)N(C)c1nc(N(C)C)s[s+]1` :
## Output inactive

## Input Call for entry CN(C)CC(NC(NCS)C(=O)NCCNc1ccc(NCCNC(=O)C(NCS)NC(CN(C)C)OCCl)c2c1C(=O)c1c(O)ccc(O)c1C2=O)OCCl (configuration not stated) :
## Output active

## Input Call for entry COc1cc2cc(C(=O)N3CC(COS(C)(=O)=O)c4ccc(O)cc43)[nH]c2c(OC)c1OC (configuration not stated) :
## Output active

## Input Call for entry `CCCN1C(=O)CN(S(=O)(=O)c2ccc(Cl)cc2)C1=O` :
## Output inactive

## Input Call for entry `CCOC(=O)C1(Cc2ccccc2)C=CN(C(=O)c2ccccc2)C=C1` :
## Output inactive

* * *

- Test system: SW-620
- Experiment Summary: NCI tumour cell line growth inhibition, 48 h
Active and inactive are the calls of the source. Cut-off read from the data, not from the text of the source: active = GI50 up to about 1.1 µM and inactive = higher.
Reported Metric: GI50

Use the examples below as a reference point.
CCCCNC(=S)Nn1c(-c2ccccc2)nc2ccccc2c1=O; > 100 µM (inactive)
Clc1ccc2c(Cl)ncnc2c1; > 100 µM (inactive)
Cc1ccc(S(=O)(=O)Nc2cc(O)nc3c2CCC3)cc1; > 100 µM (inactive)
COc1ccc(C2c3cc4c(cc3OC(NNC(N)=O)C2C)OCO4)cc1 (configuration not stated); 3.56 µM (inactive)
Fc1ccc(-c2sc(-c3cccs3)cc2Cc2cccs2)cc1; > 100 µM (inactive)
C[N+](C)([O-])CCCNc1ccnc2cccc([N+](=O)[O-])c12; 31.1 µM (inactive)
O=C(O)CSc1nnc(/C=C/c2ccccc2)[nH]1; > 57.5 µM (inactive)
CC(C)(C)CNC(=O)NCn1cc(-c2ccccc2)nn1; > 100 µM (inactive)

## Input Recorded GI50 for C=C(Cl)C(C)(Cl)CCC(Cl)C(C)(C)Cl (configuration not stated) , please?
## Output 51.6 µM (inactive)

## Input Recorded GI50 for CC(C)(Cl)C(Br)CCC(Br)(CCl)C(Cl)CBr (configuration not stated) , please?
## Output > 10 µM (inactive)

## Input Recorded GI50 for `CCOCc1cc(=O)c2c(OC)cc3c(c2o1)CCC(C)(C)O3` , please?
## Output > 100 µM (inactive)

## Input Recorded GI50 for `CN(C)/C=N\c1cccc2c1NSN2` , please?
## Output > 100 µM (inactive)
